Assay Method Text: Pharmacokinetics assay in BALB/C nude mice after intragastrical administration
Type: in vivo
Settings: female, mouse, po, 3 mg/kg, plasma, read-out: Plasma Conc. Cmax
Protocol: BALB/C nude mice were used as test animals. The drug concentration in plasma at different time points was determined by LC/MS/MS after intragastrical administration of the compounds of Examples 1, 7, 8, 10, 11, 14, 16, 39 and 42 to BALB/C nude mice. The pharmacokinetic behavior of the compounds of the compounds of the present invention was studied and evaluated in BALB/C nude mice. […]
Value Type: Cmax (ng/mL)

Example results:
CCn1cc(-c2ccc3c(c2)C[C@@H](C)N(c2ccc(C(C)C)cc2)[C@@H]3c2ccc(/C=C/C(=O)O)cc2)cn1 : 1620
CCn1cc(-c2ccc3c(c2)C[C@@H](C)N(c2ccc(C4CC4)cc2)[C@@H]3c2ccc(/C=C/C(=O)O)cc2)cn1 : 2480
CC(C)c1ccc(N2[C@H](c3c(F)cc(/C=C/C(=O)O)cc3F)c3ccc(-c4cnn(C)c4)cc3C[C@H]2C)cc1 : 1760
CC1Cc2cc(-c3cnn(C)c3)ccc2C(c2ccc(/C=C/C(=O)O)cc2)N1c1ccc(C2CC2)cc1 (stereo not drawn) : 1070
CC(C)c1ccc(N2[C@H](c3ccc(/C=C/C(=O)O)cc3)c3ccc(-c4cnn(C)c4)cc3C[C@H]2C)cc1 : 1270

(a) CCn1cc(-c2ccc3c(c2)CC(C)N(c2ccc(C(C)C)cc2)C3c2ccc(/C=C/C(=O)O)cc2)cn1 (stereo not drawn)
(b) C[C@@H]1Cc2cc(-c3cnn(C)c3)ccc2[C@@H](c2ccc(/C=C/C(=O)O)cc2)N1c1ccc(C2CC2)cc1
(c) CCc1ccc(N2C(C)Cc3cc(-c4cnn(C)c4)ccc3C2c2ccc(/C=C/C(=O)O)cc2)cc1 (stereo not drawn)
List by increasing Cmax. Output spec: labels arranged per the requested ranking.
a, b, c
(a: 1280 ng/mL, b: 1890 ng/mL, c: 3440 ng/mL)

###

Assay Method Text: Pharmacokinetics assay in BALB/C nude mice after intragastrical administration
Format: in vivo
Settings: female, mouse, po, 3 mg/kg, plasma, read-out: Apparent Distribution Volume Vz/F
Value Type: Vd/F (L/kg)

CCn1cc(-c2ccc3c(c2)CC(C)N(c2ccc(C(C)C)cc2)C3c2ccc(/C=C/C(=O)O)cc2)cn1 (stereo not drawn) [Example 7] : 1.23
CC(C)c1ccc(N2[C@H](c3c(F)cc(/C=C/C(=O)O)cc3F)c3ccc(-c4cnn(C)c4)cc3C[C@H]2C)cc1 [Example 39] : 1.53
CC(C)c1ccc(N2C(C)Cc3cc(-c4cnn(C)c4)ccc3C2c2ccc(/C=C/C(=O)O)cc2)cc1 (stereo not drawn) [Example 16] : 1.43
CC1Cc2cc(-c3cnn(C)c3)ccc2C(c2ccc(/C=C/C(=O)O)cc2)N1c1ccc(C2CC2)cc1 (stereo not drawn) [Example 10] : 3.18

(A) CCn1cc(-c2ccc3c(c2)C[C@@H](C)N(c2ccc(C4CC4)cc2)[C@@H]3c2ccc(/C=C/C(=O)O)cc2)cn1 [Example 14]
(B) CC(C)c1ccc(N2[C@H](c3ccc(/C=C/C(=O)O)cc3)c3ccc(-c4cnn(C)c4)cc3C[C@H]2C)cc1 [Example 42]
(C) CCc1ccc(N2C(C)Cc3cc(-c4cnn(C)c4)ccc3C2c2ccc(/C=C/C(=O)O)cc2)cc1 (stereo not drawn) [Example 1]
List by increasing Vd/F. Output spec: labels arranged per the requested ranking.
C, A, B
(C: 0.865 L/kg, A: 1.26 L/kg, B: 3.1 L/kg)

Where these numbers come from: patent US10398689B2
